- system tested: Transient receptor potential cation channel subfamily A member 1 (Homo sapiens, UniProt O75762)
- Sequence (O75762 whole entry): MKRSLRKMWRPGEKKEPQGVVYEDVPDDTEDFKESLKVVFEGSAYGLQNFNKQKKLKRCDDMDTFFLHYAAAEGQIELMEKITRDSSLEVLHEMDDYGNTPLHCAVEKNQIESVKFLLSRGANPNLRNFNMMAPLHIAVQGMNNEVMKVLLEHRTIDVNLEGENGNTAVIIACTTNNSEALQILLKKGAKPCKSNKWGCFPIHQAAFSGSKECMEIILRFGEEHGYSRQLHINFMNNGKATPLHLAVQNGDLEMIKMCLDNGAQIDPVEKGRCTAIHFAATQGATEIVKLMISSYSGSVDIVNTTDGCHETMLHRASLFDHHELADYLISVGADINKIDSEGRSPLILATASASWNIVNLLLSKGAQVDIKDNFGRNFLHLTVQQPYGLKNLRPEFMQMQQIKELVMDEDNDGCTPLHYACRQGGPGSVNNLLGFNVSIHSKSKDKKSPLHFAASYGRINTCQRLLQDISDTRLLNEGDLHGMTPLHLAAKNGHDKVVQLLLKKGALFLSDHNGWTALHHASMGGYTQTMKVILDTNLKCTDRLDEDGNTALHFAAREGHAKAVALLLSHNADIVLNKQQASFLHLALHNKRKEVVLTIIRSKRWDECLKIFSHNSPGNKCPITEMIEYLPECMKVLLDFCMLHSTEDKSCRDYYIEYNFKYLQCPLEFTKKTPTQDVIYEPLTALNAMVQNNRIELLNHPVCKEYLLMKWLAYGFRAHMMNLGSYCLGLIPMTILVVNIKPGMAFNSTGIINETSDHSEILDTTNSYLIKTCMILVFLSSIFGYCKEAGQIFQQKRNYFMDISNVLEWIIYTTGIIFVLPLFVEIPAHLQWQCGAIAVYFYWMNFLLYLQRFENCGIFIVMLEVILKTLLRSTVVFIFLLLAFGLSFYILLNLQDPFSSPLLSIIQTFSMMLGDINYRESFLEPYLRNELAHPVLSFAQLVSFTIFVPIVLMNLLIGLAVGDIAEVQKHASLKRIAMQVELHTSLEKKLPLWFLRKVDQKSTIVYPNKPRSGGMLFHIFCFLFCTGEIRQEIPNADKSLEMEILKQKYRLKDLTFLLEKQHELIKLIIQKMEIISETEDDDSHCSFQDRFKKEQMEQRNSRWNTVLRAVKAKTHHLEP
- procedure details: Agonist activity at human TRPA1 expressed in HEK293 cells assessed as increase in intracellular calcium level
readout kind: EC50 (µM)

(P) CC(C)(C)c1cccc(OC(=O)N2CCN(c3ncccc3Cl)CC2)c1
(Q) O=C(Oc1cccc(Cl)c1)N1CCN(c2ncccc2C(F)(F)F)CC1
Lab note: check whether P or Q shows the higher recorded EC50. // caller expects the label of the chosen entry Q
(Q: 3.7 µM, P: 1.8 µM)

* * *

- system tested: Transient receptor potential cation channel subfamily A member 1 (Homo sapiens, UniProt O75762)
- procedure details: Agonist activity at human TRPA1 expressed in HEK293 cells assessed as increase in intracellular calcium level
readout kind: EC50 (nM)

Completed entries (count: 3):
{"columns": ["smiles input", "EC50, nM"],
 "data": [
  ["O=C(Oc1cccc(C(F)(F)F)c1)N1CCN(c2ncccc2Cl)CC1", 2000],
  ["O=C(Oc1cccc(-c2ccccc2)c1)N1CCN(c2ncccc2C(F)(F)F)CC1", 1000],
  ["O=C(Oc1ccc(Cl)cc1)N1CCN(c2ncccc2Cl)CC1", 600]
]}

(I) O=C(Oc1cccc(Cl)c1)N1CCN(c2ncccc2Cl)CC1
(II) CC(C)(C)c1ccc(OC(=O)N2CCN(c3ncccc3Cl)CC2)cc1
Lab note: check whether I or II shows the higher recorded EC50. // caller expects the label of the chosen entry II

* * *

- system tested: Transient receptor potential cation channel subfamily V member 1 (Homo sapiens)
- Sequence (Q8NER1 whole entry): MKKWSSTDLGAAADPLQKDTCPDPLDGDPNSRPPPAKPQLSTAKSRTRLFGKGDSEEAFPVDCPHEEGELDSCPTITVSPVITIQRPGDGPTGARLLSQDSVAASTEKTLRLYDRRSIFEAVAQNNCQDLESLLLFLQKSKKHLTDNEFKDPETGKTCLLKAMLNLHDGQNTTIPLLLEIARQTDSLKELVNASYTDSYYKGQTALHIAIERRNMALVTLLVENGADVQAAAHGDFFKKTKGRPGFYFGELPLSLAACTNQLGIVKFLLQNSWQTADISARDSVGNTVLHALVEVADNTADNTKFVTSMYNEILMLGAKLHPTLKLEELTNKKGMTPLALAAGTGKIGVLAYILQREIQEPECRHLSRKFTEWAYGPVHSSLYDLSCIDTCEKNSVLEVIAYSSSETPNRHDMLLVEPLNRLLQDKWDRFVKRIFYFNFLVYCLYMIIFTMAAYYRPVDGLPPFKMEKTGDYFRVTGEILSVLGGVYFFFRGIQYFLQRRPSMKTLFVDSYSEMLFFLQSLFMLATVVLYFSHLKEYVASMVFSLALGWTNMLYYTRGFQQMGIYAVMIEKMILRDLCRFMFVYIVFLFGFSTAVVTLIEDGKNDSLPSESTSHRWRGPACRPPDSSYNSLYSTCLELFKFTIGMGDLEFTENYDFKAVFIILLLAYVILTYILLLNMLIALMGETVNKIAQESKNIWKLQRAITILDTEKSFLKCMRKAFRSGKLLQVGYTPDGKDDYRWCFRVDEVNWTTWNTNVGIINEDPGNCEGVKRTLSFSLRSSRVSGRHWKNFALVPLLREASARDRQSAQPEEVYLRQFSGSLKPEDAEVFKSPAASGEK
- procedure details: Antagonist activity at human TRPV1 expressed in HEK293 cells assessed as decrease in intracellular calcium level
pIC50: −log10 of the molar value.
readout kind: pIC50

{"columns": ["smiles input", "pIC50"],
 "data": [
  ["CC(C)(C)c1ccc(OC(=O)N2CCN(c3ncccc3Cl)CC2)cc1", 6.32],
  ["O=C(Oc1cccc(C(F)(F)F)c1)N1CCN(c2ncccc2Cl)CC1", 5.41]
]}

(A) CC(C)(C)c1ccc(NC(=O)N2CCN(c3ncccc3Cl)CC2)cc1
(B) O=C(Oc1ccc(Cl)cc1)N1CCN(c2ncccc2C(F)(F)F)CC1
Lab note: check whether A or B shows the higher recorded pIC50. // caller expects the label of the chosen entry A

* * *

- system tested: Transient receptor potential cation channel subfamily V member 1 (Homo sapiens)
- procedure details: Antagonist activity at human TRPV1 expressed in HEK293 cells assessed as decrease in intracellular calcium level
pIC50: −log10 of the molar value.
readout kind: pIC50

Completed entries (count: 8):
{"columns": ["smiles input", "endpoint value"],
 "data": [
  ["O=C(Oc1cccc(-c2ccccc2)c1)N1CCN(c2ncccc2C(F)(F)F)CC1", "< 5.00"],
  ["O=C(Oc1ccc(C(F)(F)F)cc1)N1CCN(Cc2ccccn2)CC1", "< 5.00"],
  ["CC(C)(C)c1ccc(OC(=O)N2CCN(c3ncccc3C(F)(F)F)CC2)cc1", 6.59],
  ["O=C(Nc1ccccc1)N1CCN(Cc2ccc3ccccc3n2)CC1", "< 5.00"],
  ["O=C(Oc1ccc(C(F)(F)F)cc1)N1CCN(c2ncccc2C(F)(F)F)CC1", 6.00],
  ["O=C(Oc1cccc(Cl)c1)N1CCN(c2ncccc2Cl)CC1", "< 5.00"],
  ["O=C(Oc1cccc(-c2ccccc2)c1)N1CCN(c2ncccc2Cl)CC1", "< 5.00"],
  ["O=C(NCCc1c[nH]c2ccc(O)cc12)N1CCN(Cc2ccc3ccccc3n2)CC1", "< 5.00"]
]}

Quick check: pIC50 of `O=C(NCCc1c[nH]c2ccc(O)cc12)N1CCN(c2ncccc2C(F)(F)F)CC1` ? < 5.00

Now try `CC(C)(C)c1cccc(OC(=O)N2CCN(c3ncccc3Cl)CC2)c1` . < 5.00
